GI50 values, listed per item
Tested on: A498
Assay: NCI tumour cell line growth inhibition, 48 h
Activity calls are given as the source filed them. No stated cut-off is given here; in the data, active = GI50 up to about 1.1 µM and inactive = higher.
measurement_name: GI50

- molecule: "Nc1ccc(C(=O)O)cc1.Nc1nc(N)c2nc[nH]c2n1"
  measurement_name: "GI50"
  result: "13.6 µM (inactive)"
- molecule: "C=C1C[C@@H](O)[C@@H](Br)C(C)(C)[C@]12CCC(C)(Br)C(Cl)C2 (some centres not stated)"
  measurement_name: "GI50"
  result: "> 50 µM (inactive)"
- molecule: "NCC(=O)NC1(c2cc3ccccc3s2)CCCCC1"
  measurement_name: "GI50"
  result: "31 µM (inactive)"
- molecule: "Nc1nc(SCC(=O)c2ccccc2)c2[nH]cnc2n1"
  measurement_name: "GI50"
  result: "> 100 µM (inactive)"
- molecule: "Cn1c(=O)c2c(nc3sc4ncccc4c(=O)n32)n(C)c1=O"
  measurement_name: "GI50"
  result: "> 100 µM (inactive)"
- molecule: "O=c1c2cc(I)ccc2nc(SCc2nncs2)n1Cc1ccccc1"
  measurement_name: "GI50"
  result: "19.7 µM (inactive)"
- molecule: "COc1ccc(O[C@H](COCc2ccccc2)C[C@@H]2COC(C)(C)O2)cc1"
  measurement_name: "GI50"
  result: "> 100 µM (inactive)"
- molecule: "Nc1nc(Cl)c2ncn(CCCC(c3ccccc3)P(=O)(O)O)c2n1 (configuration not stated)"
  measurement_name: "GI50"
  result: "> 100 µM (inactive)"
- molecule: "CC(C)(C)NC(=O)/C(=C\\Sc1ccccc1)c1ccc2c(c1)OCO2"
  measurement_name: "GI50"
  result: "20.4 µM (inactive)"
- molecule: "Cc1cc(S(=O)(=O)Nc2nc3ccccc3[nH]2)c(S)cc1Cl"
  measurement_name: "GI50"
  result: "> 100 µM (inactive)"
- molecule: "Cc1nc2ccc(/N=N/N(C)C)cc2[nH]1"
  measurement_name: "GI50"
  result: "> 100 µM (inactive)"
- molecule: "O=C(O)c1ccc(N/C(=C(/C(Cl)=C(Cl)Cl)[N+](=O)[O-])n2nnc3ccccc32)cc1"
  measurement_name: "GI50"
  result: "> 100 µM (inactive)"
- molecule: "NCCN1C(=O)c2cc(Cl)c(Cl)cc2C1(O)c1ccc(Cl)cc1 (configuration not stated)"
  measurement_name: "GI50"
  result: "2.92 µM (inactive)"
- molecule: "CCOC(=O)/C=C(\\C(=O)OCC)n1cnc2c(N)ncnc21"
  measurement_name: "GI50"
  result: "13.2 µM (inactive)"
- molecule: "COc1ccc(C(O)/C(=N\\NC(N)=S)c2nc3ccc([N+](=O)[O-])cc3nc2O)cc1OC (configuration not stated)"
  measurement_name: "GI50"
  result: "> 100 µM (inactive)"
- molecule: "Oc1ccccc1CNCc1ccccc1O"
  measurement_name: "GI50"
  result: "> 100 µM (inactive)"
- molecule: "Cc1[nH]c2ncn(/N=C/c3ccccc3)c(=N)c2c1Cc1ccccc1"
  measurement_name: "GI50"
  result: "60.8 µM (inactive)"
- molecule: "Oc1cc(Cl)cc2cc(Cl)cnc12"
  measurement_name: "GI50"
  result: "12.5 µM (inactive)"
- molecule: "O=C(O)CCSC(CC1(c2ccc(Cl)cc2)NC(=O)CCS1)c1ccccc1 (configuration not stated)"
  measurement_name: "GI50"
  result: "21.5 µM (inactive)"
- molecule: "CCOC(=O)CCCc1cc(O)c2c(C)c3[nH]c4ccc(Cl)cc4c3c(C)c2n1"
  measurement_name: "GI50"
  result: "15.3 µM (inactive)"
- molecule: "CCOC(=O)NC(=O)c1cn(CCN2CCN(C(=O)CCCCCCCCCCC(=O)N3CCN(CCn4cc(C(=O)NC(=O)OCC)c(=O)[nH]c4=O)CC3)CC2)c(=O)[nH]c1=O"
  measurement_name: "GI50"
  result: "> 100 µM (inactive)"
- molecule: "Cn1nc(-c2ccccc2)c2c(-c3ccccc3)c3cc(Cl)ccc3nc21"
  measurement_name: "GI50"
  result: "> 100 µM (inactive)"
